Measured on: HLA-B*0702 (human)
Experiment: competition vs 125I-labeled standard peptide, purified HLA
pIC50: −log10 of the molar value.
The label depends only on pIC50: 1.0 if it is at least 7, 0.0 if it is smaller.

q: Check the entry FPAEQRASPI (10-mer analog of the HER2/neu peptide starting at position 642) [Her2/neu.642.F1I10] : does pIC50 equal or exceed 7?
a: 1.0

q: Queued: FPLTSIISA (9-mer analog of the HER2/neu peptide starting at position 649; same label as the 10-mer in r43) [Her2/neu.649.F1, 9-mer]
a: 0.0

q: What would you report for MPNQAQMRILI (11-mer analog of the HER2/neu peptide starting at position 706) [Her2/neu.706.I11] ?
a: 0.0

q: Quick one: FPLTPSGAM (9-mer analog of the HER2/neu peptide starting at position 698) [Her2/neu.698.F1]
a: 1.0

q: Another binder to check: FPLTSIISAI (10-mer analog of the HER2/neu peptide starting at position 649) [Her2/neu.649.F1I10]
a: 0.0

q: Also, FPLTSIISAV (10-mer analog of the HER2/neu peptide starting at position 649; same label as the 9-mer in r40) [Her2/neu.649.F1, 10-mer] please.
a: 0.0
